ASSAYED_TARGET: Tyrosine-protein kinase BTK (Homo sapiens, UniProt Q06187)
Sequence (Q06187 whole entry): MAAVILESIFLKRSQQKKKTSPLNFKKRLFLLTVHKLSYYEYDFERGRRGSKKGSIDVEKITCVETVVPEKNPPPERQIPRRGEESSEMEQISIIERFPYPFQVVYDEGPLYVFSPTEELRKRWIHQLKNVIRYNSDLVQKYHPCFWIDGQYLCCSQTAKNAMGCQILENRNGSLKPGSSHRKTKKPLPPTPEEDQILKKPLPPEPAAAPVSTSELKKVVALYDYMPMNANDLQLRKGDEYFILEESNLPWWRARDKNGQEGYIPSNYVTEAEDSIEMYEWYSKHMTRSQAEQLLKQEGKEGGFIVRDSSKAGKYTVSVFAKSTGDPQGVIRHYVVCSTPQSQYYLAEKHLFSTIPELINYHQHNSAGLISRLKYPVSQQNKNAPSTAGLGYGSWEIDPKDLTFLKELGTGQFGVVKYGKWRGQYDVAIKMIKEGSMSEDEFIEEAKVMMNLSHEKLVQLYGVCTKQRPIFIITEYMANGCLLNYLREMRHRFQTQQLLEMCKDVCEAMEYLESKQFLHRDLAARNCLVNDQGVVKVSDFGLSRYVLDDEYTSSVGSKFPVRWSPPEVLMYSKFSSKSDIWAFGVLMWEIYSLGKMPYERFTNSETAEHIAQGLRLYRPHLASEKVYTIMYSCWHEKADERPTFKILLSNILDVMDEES
PROCEDURE_SUMMARY: Lanthscreen Eu Kinase Binding assay: A Lanthscreen Eu Kinase Binding assay (Life Technologies) was performed to quantitate the ability of test compounds to bind to BTK. The assay is based on the binding and displacement of Alexa Fluor647-labeled Kinase Tracer #236 to the ATP-binding site of human full length His-tagged BTK (Life Technologies cat # PV3587) with TR-FRET detection using a europium-labeled anti-His antibody. The assay was assembled in 384-well low volume NBS black plates (Corning) where 2 nM BTK and test compound in DMSO at varying concentrations were pre-incubated for 30 min at 28° C. in assay buffer consisting of 50 mM HEPES, pH 7.4, 10 mM MgCl2, 1 mM EGTA. 100 μM Na3VO4 and 0.01% Brij 35. Then, 2 nM of Eu-anti His antibody and 30 nM Kinase Tracer were added and incubated for […] at 28° C. Following incubation, TR-FRET signal was read on an Envision plate reader (Excitation: 340 nm; Emissions: 615 and 665 nm). The 665: 615 nm emission ratio was calculated and converted to POC compared to control and blank wells.
MEASUREMENT_NAME: IC50 (nM)
Number only, in nM; omit the unit.

Which value of IC50 has been reported for `C=CC(=O)N1CC(c2cc3cc(C4CC4)ccc3c(=O)n2-c2cccc(-c3ccnc(N)c3)c2CO)C1` in the records?
0.9
